The measurements presented in this section are drawn from patent US20260125375A1.

target: WT CBL-B (36-427) (Homo sapiens, UniProt Q13191); construct: N-terminal biotinylated WT CBL-B (36-427) and C-CBL (46-435) were captured on a streptavidin (SA) coated sensor chip; test: Surface Plasmon Resonance (SPR) assay, binding affinity and kinetics, CBL-B; details: SPR at 10° C., biotinylated WT CBL-B (36-427) on streptavidin chip; geometric mean; read-out: CBL-B SPR Kd (nM) GMean
Sequence (Q13191 36-427): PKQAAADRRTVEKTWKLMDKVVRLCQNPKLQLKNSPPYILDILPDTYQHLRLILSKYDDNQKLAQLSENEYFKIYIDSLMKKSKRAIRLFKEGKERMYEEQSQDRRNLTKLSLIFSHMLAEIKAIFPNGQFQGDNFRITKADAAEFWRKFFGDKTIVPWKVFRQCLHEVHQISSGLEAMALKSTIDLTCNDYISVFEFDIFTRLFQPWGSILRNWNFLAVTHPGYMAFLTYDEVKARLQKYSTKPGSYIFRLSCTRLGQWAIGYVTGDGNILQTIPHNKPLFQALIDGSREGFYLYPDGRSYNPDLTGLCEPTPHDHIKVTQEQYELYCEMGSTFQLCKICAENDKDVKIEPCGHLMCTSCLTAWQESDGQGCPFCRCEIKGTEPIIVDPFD
Class (by Kd) -- low interval: < 3 nM; middle interval: ≥ 3 nM and < 6 nM; high interval: ≥ 6 nM

Lookup: Lab note: which band did Cn1cnnc1[C@@H](c1cccc(-c2n[nH]c3c(CN[C@H]4CC[C@@H](O)C4)nc(C(F)(F)F)cc23)c1)C1CCC1 land in?
Found: middle interval

Lookup: Lab note: which band did Cn1cnnc1CC1(c2cccc(-c3n[nH]c4c(CNC5CCC5)nc(C(F)(F)F)cc34)c2)COC1 land in?
Found: middle interval

Lookup: Lab note: which band did C[C@H](c1nc(C(F)(F)F)cc2c(-c3cccc(C4(Cc5nncn5C)COC4)c3)n[nH]c12)N(C)C (single isomer, unassigned) land in?
Found: middle interval

Lookup: Lab note: which band did Cn1cnnc1[C@@H](c1cccc(-c2n[nH]c3c(CN[C@@H]4CCC[C@@H]4O)nc(C(F)(F)F)cc23)c1)C1CCC1 land in?
Found: low interval

Lookup: Lab note: which band did C[C@@H](c1nc(C(F)(F)F)cc2c(-c3cccc(C4(Cc5nncn5C)COC4)c3)n[nH]c12)N1CCC1 (single isomer, unassigned) land in?
Found: high interval

Lookup: Lab note: which band did CC(NC1CNC1)c1nc(C(F)(F)F)cc2c(-c3cccc(C4(Cc5nncn5C)COC4)c3)n[nH]c12 (single isomer, unassigned) [Example C28] land in?
Found: high interval

Lookup: Lab note: which band did Cn1cnnc1[C@@H](c1cccc(-c2n[nH]c3c(CN[C@H]4CC[C@H](O)C4)nc(C(F)(F)F)cc23)c1)C1CCC1 land in?
Found: high interval

Lookup: Lab note: which band did CNCc1nc(C(F)(F)F)cc2c(-c3cccc(C4(Cc5nncn5C)COC4)c3)n[nH]c12 land in?
Found: high interval

Lookup: Lab note: which band did CC(c1nc(C(F)(F)F)cc2c(-c3cccc(C4(Cc5nncn5C)COC4)c3)n[nH]c12)N1CCOCC1 (single isomer, unassigned) [Example C23] land in?
Found: middle interval

Lookup: Lab note: which band did C[C@H](N[C@H]1CCC(F)(F)C1)c1nc(C(F)(F)F)cc2c(-c3cccc([C@H](c4nncn4C)C4CCC4)c3)n[nH]c12 land in?
Found: low interval

Lookup: Lab note: which band did C[C@H](N[C@@H]1CCC(F)(F)C1)c1nc(C(F)(F)F)cc2c(-c3cccc(C4(Cc5nncn5C)COC4)c3)n[nH]c12 (single isomer, unassigned) land in?
Found: low interval

Lookup: Lab note: which band did C[C@H]1CN([C@@H](C)c2nc(C(F)(F)F)cc3c(-c4cccc(C5(Cc6nncn6C)COC5)c4)n[nH]c23)CCO1 (single isomer, unassigned) land in?
Found: middle interval

Lookup: Lab note: which band did Cn1cnnc1CC1(c2cccc(-c3n[nH]c4cnc(C(F)(F)F)cc34)c2)COC1 land in?
Found: high interval

Lookup: Lab note: which band did C[C@H](N[C@H]1C[C@@H](F)C1)c1nc(C(F)(F)F)cc2c(-c3cccc([C@H](c4nncn4C)C4CCC4)c3)n[nH]c12 (single isomer, unassigned) land in?
Found: low interval

Lookup: Lab note: which band did C[C@H](N[C@H]1CCC(F)(F)C1)c1nc(C(F)(F)F)cc2c(-c3cccc(C4(Cc5nncn5C)COC4)c3)n[nH]c12 (single isomer, unassigned) land in?
Found: low interval

Lookup: Lab note: which band did C[C@@H](c1nc(C(F)(F)F)cc2c(-c3cccc([C@H](c4nncn4C)C4CCC4)c3)n[nH]c12)N1CCNC(=O)C1 (single isomer, unassigned) land in?
Found: middle interval

Lookup: Lab note: which band did C[C@@H](NC1CCC1)c1nc(C(F)(F)F)cc2c(-c3cccc(C4(Cc5nncn5C)COC4)c3)n[nH]c12 land in?
Found: low interval

Lookup: Lab note: which band did Cn1cnnc1[C@@H](c1cccc(-c2n[nH]c3c(CN[C@H]4CCC(F)(F)C4)nc(C(F)(F)F)cc23)c1)C1CCC1 (single isomer, unassigned) land in?
Found: high interval

Lookup: Lab note: which band did Cn1cnnc1[C@@H](c1cccc(-c2n[nH]c3c(CN4CCCCC4)nc(C(F)(F)F)cc23)c1)C1CCC1 land in?
Found: high interval

Lookup: Lab note: which band did CC(C)NC(C)c1nc(C(F)(F)F)cc2c(-c3cccc([C@H](c4nncn4C)C4CCC4)c3)n[nH]c12 (single isomer, unassigned) [Example C34] land in?
Found: middle interval

Lookup: Lab note: which band did Cn1cnnc1[C@@H](c1cccc(-c2n[nH]c3cnc(C(F)(F)F)cc23)c1)C1CCC1 land in?
Found: high interval

Lookup: Lab note: which band did Cn1cnnc1[C@@H](c1cccc(-c2n[nH]c3c(CN4CCCC4)nc(C(F)(F)F)cc23)c1)C1CCC1 land in?
Found: middle interval

Lookup: Lab note: which band did C[C@H](N[C@H]1CCOC1)c1nc(C(F)(F)F)cc2c(-c3cccc([C@H](c4nncn4C)C4CCC4)c3)n[nH]c12 (single isomer, unassigned) land in?
Found: low interval

Lookup: Lab note: which band did Cn1cnnc1[C@@H](c1cccc(-c2n[nH]c3c(C4CCCCN4)nc(C(F)(F)F)cc23)c1)C1CCC1 (single isomer, unassigned) [Example L1] land in?
Found: high interval
